# pIC50 values compiled below
Target: Glucocorticoid Receptor (GR) (Homo sapiens, UniProt P04150)
Sequence (P04150 1-777): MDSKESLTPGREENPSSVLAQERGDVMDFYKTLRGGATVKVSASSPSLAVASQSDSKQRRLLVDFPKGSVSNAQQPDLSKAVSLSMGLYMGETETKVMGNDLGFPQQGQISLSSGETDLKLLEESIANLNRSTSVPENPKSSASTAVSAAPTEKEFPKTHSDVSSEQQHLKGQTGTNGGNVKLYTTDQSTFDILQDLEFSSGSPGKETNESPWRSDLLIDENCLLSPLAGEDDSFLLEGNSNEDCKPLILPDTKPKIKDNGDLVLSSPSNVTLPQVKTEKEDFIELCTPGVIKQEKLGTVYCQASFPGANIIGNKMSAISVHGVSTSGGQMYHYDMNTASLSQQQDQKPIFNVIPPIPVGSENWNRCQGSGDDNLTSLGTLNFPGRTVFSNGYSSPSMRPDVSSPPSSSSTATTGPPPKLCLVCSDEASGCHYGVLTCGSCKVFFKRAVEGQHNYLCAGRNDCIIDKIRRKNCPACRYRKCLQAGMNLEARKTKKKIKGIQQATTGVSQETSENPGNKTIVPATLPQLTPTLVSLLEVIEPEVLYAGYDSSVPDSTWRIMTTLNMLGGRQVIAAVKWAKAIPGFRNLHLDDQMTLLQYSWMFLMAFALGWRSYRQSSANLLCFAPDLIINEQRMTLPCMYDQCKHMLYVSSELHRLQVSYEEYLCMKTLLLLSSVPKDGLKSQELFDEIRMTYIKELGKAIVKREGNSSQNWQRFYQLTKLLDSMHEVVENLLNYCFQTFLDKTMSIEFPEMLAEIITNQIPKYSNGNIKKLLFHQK
pIC50: −log10 of the molar value.

A selection of reference data follows.
1. CCn1nc(-c2ccccn2)c2c1NCCSC2c1ccc(C(=O)Nc2ccnn2C)cc1C (stereo not drawn) : > 7.00
2. Cn1nc(-c2ccccn2)c2c1NCCSC2c1ccc(-c2cnn(CCC#N)c2)cc1Cl (stereo not drawn) : 6.00 to 7.00
3. Cc1cc(CCC(C)(C)O)ccc1[C@@H]1SC[C@H](C)Nc2c1c(-c1ccccn1)nn2C (single isomer, unassigned) : > 7.00

Read the next record carefully.
Input: Dear colleague, I am looking for the recorded pIC50 of the following compound: Cc1cc(Cl)ccc1C1SC(C)(C)CNc2c1c(C)nn2C (stereo not drawn)
Output: > 7.00
